Data provenance is PubChem BioAssay (NCATS).

Tested on: ATS95
ASSAY: qHTS profiling for inhibitors of Plasmodium falciparum proliferation (AID 504749); also: nearly all actives have a fitted effect of over 60% in size
ASSAY_CONDITIONS: P. falciparum in erythrocytes, SYBR Green DNA, 72 h; series mostly up to 28.7 µM
Method: NIH National Institute of Allergy and Infectious Diseases [NIAID] NIH Chemical Genomics Center [NCGC] […] Because mature erythrocytes lack DNA, only Plasmodium-derived DNA is detected. NCGC Assay Protocol Summary: The SYBR Green viability assay was adapted from a method described previously (Plouffe et al., 2008). […] The following morning, fluorescence intensity at 485(14) nm excitation and 535(25) nm emission wavelengths was measured on an EnVision (Perkin Elmer) plate reader. […]
Records with an inconclusive call do not appear. Calls of active or inactive are those of the source. Calls follow the shape of the dose curve; as a rule, active = well fitted inhibition curve with a large enough effect; inconclusive = small, poorly fitted or top-dose-only effect; inactive = flat fitted curve, though single readings scatter.
Respond using exactly one of the listed classes: active, inactive

These recorded examples may help you get a feel for the data.
COMPOUND: CC(C)NCC(O)c1ccc(O)c(O)c1 (configuration not stated)
ANSWER_LABEL: inactive

COMPOUND: CC(C)C(=O)Nc1ccc([N+](=O)[O-])c(C(F)(F)F)c1
ANSWER_LABEL: inactive

COMPOUND: COc1ccc(CCN(C)CCCC(C#N)(c2ccc(OC)c(OC)c2)C(C)C)cc1OC (configuration not stated)
ANSWER_LABEL: inactive

Check the results log: what was the call for CCCCc1oc2ccccc2c1C(=O)c1cc(I)c(OCCN(CC)CC)c(I)c1 ?
active

* * *

Tested on: PA-1
ASSAY: Primary qHTS to identify gynecologic anti-cancer compounds using libraries of approved drugs and bioactive compounds (AID 1345084); also: nearly all actives have a fitted effect of over 55% in size
ASSAY_CONDITIONS: Gynecologic cancer cell panel viability, ATPlite luminescence, 48 h; series mostly up to 57.5 µM
Records with an inconclusive call do not appear. Active and inactive are the calls of the source. Calls come from the whole dose curve; as a rule, active = well fitted cell-killing curve with a large enough effect; inconclusive = small, poorly fitted or top-dose-only effect, or effect the other way; inactive = flat fitted curve, though single readings scatter.
Respond using exactly one of the listed classes: active, inactive

Check the results log: what was the call for NC(=O)OCC(COC(N)=O)c1ccccc1 ?
inactive

What do you have for COc1ccccc1N1CCN(CC(O)COc2cccc3ccccc23)CC1 (configuration not stated) ?
active

What do you have for CC(C)NCC(O)COc1ccc(CCOCC2CC2)cc1 (configuration not stated) ?
inactive

What do you have for CN(C)CCCN1c2ccccc2CCc2ccc(Cl)cc21 ?
inactive

* * *

SYSTEM_UNDER_TEST: Papain (Carica papaya) (UniProt P00784)
Sequence (P00784 whole entry, looked up): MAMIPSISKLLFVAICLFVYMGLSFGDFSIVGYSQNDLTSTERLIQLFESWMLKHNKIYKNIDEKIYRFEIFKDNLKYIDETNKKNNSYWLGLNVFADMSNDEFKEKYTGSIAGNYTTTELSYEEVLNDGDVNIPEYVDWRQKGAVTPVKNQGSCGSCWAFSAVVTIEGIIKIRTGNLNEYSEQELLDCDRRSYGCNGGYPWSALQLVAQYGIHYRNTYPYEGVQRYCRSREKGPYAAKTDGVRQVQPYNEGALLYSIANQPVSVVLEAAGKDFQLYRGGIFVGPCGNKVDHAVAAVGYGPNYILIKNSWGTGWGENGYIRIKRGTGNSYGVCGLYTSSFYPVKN
ASSAY: Primary qHTS assay for inhibitors of the protease papain (AID 1645873);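 also: papain turnover of Z-FR-AMC read as the AMC fluorescence gain over 10 min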
ASSAY_CONDITIONS: papain Z-FR-AMC cleavage, AMC fluorescence; series mostly up to 49.8 µM
Results filed as inconclusive are left out. Calls of active or inactive are those of the source. The call rests on the fitted dose curve; in most records, active means well fitted inhibition curve with a large enough effect; inconclusive means small, poorly fitted or top-dose-only effect; inactive means no such curve, though single readings can be large or run the other way.
Respond using exactly one of the listed classes: yes for active, no for inactive

These recorded examples may help you get a feel for the data.
COMPOUND: CN1CCN(CCCN2c3ccccc3Sc3ccc(Cl)cc32)CC1
ANSWER_LABEL: no

COMPOUND: CC(C)C(=O)Nc1ccc([N+](=O)[O-])c(C(F)(F)F)c1
ANSWER_LABEL: no

COMPOUND: COc1cc2nc(N3CCN(C(=O)C4COc5ccccc5O4)CC3)nc(N)c2cc1OC (centres undefined)
ANSWER_LABEL: yes

COMPOUND: CN(C)c1nc(N(C)C)nc(N(C)C)n1
ANSWER_LABEL: no

COMPOUND: CC#C[C@]1(O)CC[C@H]2[C@@H]3CCC4=CC(=O)CCC4=C3[C@@H](c3ccc(N(C)C)cc3)C[C@@]21C
ANSWER_LABEL: no

COMPOUND: NS(=O)(=O)c1cc2c(cc1Cl)NCNS2(=O)=O
ANSWER_LABEL: no

Check the results log: what was the call for Cn1c(=O)c2c(ncn2C)n(C)c1=O ?
no

What do you have for COc1ccccc1OCC(O)CN1CCN(CC(=O)Nc2c(C)cccc2C)CC1 (centres undefined) ?
no

What do you have for NCCS(=O)(=O)O ?
no

What do you have for CCc1cccc2c3c([nH]c12)C(CC)(CC(=O)O)OCC3 (centres undefined) ?
no
